Readings of normalised viability for the listed molecules
test system: CAL-51; experiment: normalised viability (% of control), CellTiter-Blue; higher = more viable cells (about 100 = DMSO control); details: incubation time: 72 h
PROPERTY: normalised viability (%)

CO[C@H]1C[C@@H]2CC[C@@H](C)[C@@](O)(O2)C(=O)C(=O)N2CCCC[C@H]2C(=O)O[C@H]([C@H](C)C[C@@H]2CC[C@@H](OP(C)(C)=O)[C@H](OC)C2)CC(=O)[C@H](C)/C=C(\C)[C@@H](O)[C@@H](OC)C(=O)[C@H](C)C[C@H](C)/C=C/C=C/C=C/1C [Ridaforolimus] (300 nM) ... 35.5
O=P1(N(CCCl)CCCl)NCCCO1 (centres undefined) [Cyclophosphamide] (12000 nM) ... 105
COCC1(CO)C(=O)C2CCN1CC2 (centres undefined) [Prima-1 Met] (3000 nM) ... 97.2
CC(C)C[C@@H](C(=O)N[C@H](C(=O)OC1CCCC1)c1ccccc1)[C@H](O)C(=O)NO [Tosedostat] (3000 nM) ... 75.3
CN(C)c1nc(N(C)C)nc(N(C)C)n1 [Altretamine] (3000 nM) ... 114
Cc1cc(Nc2cc(CN3CCOCC3)c3nc(C)c(Cc4ccc(Cl)cc4F)n3n2)n[nH]1 (3000 nM) ... 38.2
O=C(Nc1cccnc1)N1CCC(Cc2cccc(Oc3ccc(C(F)(F)F)cn3)c2)CC1 [PF-3845] (3000 nM) ... 93.2
NC(=O)c1ccc(I)c([N+](=O)[O-])c1 [Iniparib] (3000 nM) ... 93.8
N#Cc1ccc(COC[C@H]2O[C@@H](n3c(NCc4ccc(Cl)c(Cl)c4)nc4c(N)ncnc43)[C@H](O)[C@@H]2O)cc1 (3000 nM) ... 99.3
